# method notes: LC retention time (Atlantis T3, 5-95% MeOH gradient, 0.1% formic acid); higher = more retained / less polar
Lab note: compare LC retention time against 20 min. Equal or greater, write rule met. Smaller, write rule not met.

>>> class("COC(=O)[N-]S(=O)(=O)c1ccc(N)cc1 [Asulam]")
"rule not met"
>>> class("CCCC(Cn1cncn1)c1ccc(Cl)cc1Cl (centres undefined) [Penconazol]")
"rule met"
>>> class("CN(C)C(=O)NC1CCCCCCC1 [Cycluron]")
"rule not met"
>>> class("C=CCOc1ccccc1OCC(O)C[NH2+]C(C)C (centres undefined) [Oxprenolol]")
"rule not met"
>>> class("CCS(=O)(=O)c1nc2ccccn2c1S(=O)(=O)[N-]C(=O)Nc1nc(OC)cc(OC)n1 [Sulfosulfuron]")
"rule not met"
>>> class("[NH3+]C(CC(=O)N1CCn2c(nnc2C(F)(F)F)C1)Cc1cc(F)c(F)cc1F (centres undefined) [Sitagliptin]")
"rule not met"
>>> class("COc1ccc(C(=O)c2ccccc2)c(O)c1 [Benzophenon-3 (=2-Hydroxy-4-methoxybenzophenon)]")
"rule met"
>>> class("CC1(C)C(=O)Oc2ccc(OS(C)(=O)=O)cc21 [Ethofumesat-2-keto]")
"rule not met"
>>> class("COC(=O)c1csc(C)c1S(=O)(=O)[N-]C(=O)n1nc(OC)n(C)c1=O [Thiencarbazone]")
"rule not met"
